system: HeLa Kyoto; experiment: solubility in G1/S (NP-40 vs SDS abundance) (log2 ratio); higher = more soluble; details: cell cycle stage: G1/S;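 also: HeLa Kyoto cells arrested at G1/S by double thymidine block, proteins quantified by TMT10plex mass spectrometry in mild NP-40 versus SDS extracts, three biological replicates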
Consider the following sequences; for each one, report its solubility in G1/S (log2).
Simply state the number, no unit and no words.

[in] GET /values?readout=solubility in G1/S (log2)&item= MERKISRIHLVSEPSITHFLQVSWEKTLESGFVITLTDGHSAWTGTVSESEISQEADDMAMEKGKYVGELRKALLSGAGPADVYTFNFSKESCYFFFEKNLKDVSFRLGSFNLEKVENPAEVIRELICYCLDTIAENQAKNEHLQKENERLLRDWNDVQGRFEKCVSAKEALETDLYKRFILVLNEKKTKIRSLHNKLLNAAQEREKDIKQEGETAICSEMTADRDPVYDESTDEESENQTDLSGLASAAVSKDDSIISSLDVTDIAPSRKRRQRMQRNLGTEPKMAPQENQLQEKENSRPDSSLPETSKKEHISAENMSLETLRNSSPEDLFDEI [XRCC4]
[out] 0.0124

[in] Given the sequence MAAAEEGCSVGAEADRELEELLESALDDFDKAKPSPAPPSTTTAPDASGPQKRSPGDTAKDALFASQEKFFQELFDSELASQATAEFEKAMKELAEEEPHLVEQFQKLSEAAGRVGSDMTSQQEFTSCLKETLSGLAKNATDLQNSSMSEEELTKAMEGLGMDEGDGEGNILPIMQSIMQNLLSKDVLYPSLKEITEKYPEWLQSHRESLPPEQFEKYQEQHSVMCKICEQFEAETPTDSETTQKARFEMVLDLMQQLQDLGHPPKELAGEMPPGLNFDLDALNLSGPPGASGEQCLIM [PEX19] , what is its reported solubility in G1/S (log2)?
[out] -0.302
